- Assay Summary: Octanol-PBS partition coefficient, log P of the compound at 10 kBq at pH 7.4 by gamma counting analysis
- Type: physicochemical
Test Readout: logD
Give the figure by itself; no unit, no explanation.

Query: Fill blank: measured logD of the molecule COc1nc(OCC[18F])nc(OC)c1NC(=O)c1ccc(Oc2cc3c(cc2C)CCC3(C)C)o1 is ____.
Response: 1.74
